Reference for the values: patent US20250332173A1

system: Target C; assay: RT-qPCR splicing assay panel, Target C canonical junction (CJ) mRNA; format: cell-based, human; settings: Table 5 panel; canonical junction qPCR; compound concentration having 50% response in CJ decrease; read-out: Target C IC50 (decrease in CJ mRNA levels)
pIC50: −log10 of the molar value.
READOUT LABEL: pIC50

# pIC50 lookup, item Cc1cn2nc(-c3ccc4c(=O)n([C@@H]5CCNC6(CC6)C5)cnc4c3)cc(C)c2n1 [Compound 444]
6.00 to 7.00

###

test system: HTT mRNA; assay: RT-qPCR splicing assay, HTT canonical junction (CJ) and alternative junction (AJ) mRNA; assay type: cell-based, human; conditions: Homo sapiens, increase in HTT alternative junction (AJ) mRNA, RT-qPCR; read-out: HTT AJ AC50
READOUT LABEL: AC50

- COMPOUND: "CNC12CCC(n3ccc4nc(-c5cc6cn(C)nc6cc5O)ccc4c3=O)(CC1)C2 [Compound 1525]"
  TESTED SYSTEM: "HTT mRNA"
  AC50: "1000 to 10000 nM"

Note: attention shifts to another entry.
# AC50 lookup, item Cc1cc(-c2ccc3c(=O)n(C4CC(C)(C)NC(C)(C)C4)cnc3c2)cc2cn(C)nc12 [Compound 157]
> 10000 nM
